Taken from paper PMC4107925.

- target: HsNMT1 (Homo sapiens)
- Sequence (P30419 whole entry): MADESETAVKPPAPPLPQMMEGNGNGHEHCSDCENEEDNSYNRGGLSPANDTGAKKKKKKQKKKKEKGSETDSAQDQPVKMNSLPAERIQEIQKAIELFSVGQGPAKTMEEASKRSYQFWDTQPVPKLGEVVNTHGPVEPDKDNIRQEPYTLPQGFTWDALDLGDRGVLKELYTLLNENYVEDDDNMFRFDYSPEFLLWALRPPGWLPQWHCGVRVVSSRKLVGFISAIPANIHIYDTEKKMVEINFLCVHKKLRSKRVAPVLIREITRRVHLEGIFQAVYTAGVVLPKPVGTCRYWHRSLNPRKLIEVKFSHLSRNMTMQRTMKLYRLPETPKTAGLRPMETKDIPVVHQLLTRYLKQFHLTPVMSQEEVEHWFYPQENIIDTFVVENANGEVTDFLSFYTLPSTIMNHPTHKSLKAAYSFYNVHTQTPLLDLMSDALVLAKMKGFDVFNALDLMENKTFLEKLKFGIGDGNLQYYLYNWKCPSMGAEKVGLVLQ
- method: NMT enzyme inhibition assay (non-radioactive), human NMT
- experimental.setup: human NMT isoform 1 (HsNMT1); read-out: IC50 HsNMT
pIC50: −log10 of the molar value.
readout.label: pIC50

CN1CCC(N(C)c2nc(N(C)CCC#N)c3sccc3n2)CC1 = 5.45

* * *

pIC50: −log10 of the molar value.
Target or system LmNMT (Leishmania major): recorded pIC50 listed per item.
readout.label: pIC50

CN1CCC(N(C)c2nc(N(C)CCC#N)c3sccc3n2)CC1 = 6.52
N[C@@H](CC(=O)N1C[C@H](CO)[C@@H](c2ccc(Cl)cc2)C1)Cc1ccc(Cl)cc1 = 7.51
c1cncc(CCNCc2cccc(-c3cccc(CN4CCc5ncsc5C4)c3)c2)c1 = 5.99
